Species: Rattus norvegicus
Assay: Open TG-GATES - Regimen: Daily Repeat
Assay type: toxicity, organism-based, Sprague-Dawley
Set-up: regimen Daily Repeat, gender Male, age 6 weeks
Settings: in vivo, po, 1000 mg/kg, […], tissue Plasma, route gavage, dose level High, time 28 day
Would you kindly list RALB for each of these compounds?
Numbers only, in g/dL.

>  <compound>
CCOC(=O)CCC(=O)O[C@H]1[C@H](O[C@@H]2[C@@H](C)[C@H](O[C@H]3C[C@@](C)(OC)[C@@H](O)[C@H](C)O3)[C@@H](C)C(=O)O[C@H](CC)[C@@](C)(O)[C@H](O)[C@@H](C)C(=O)[C@H](C)C[C@@]2(C)O)O[C@H](C)C[C@@H]1N(C)C [ERYTHROMYCIN ETHYLSUCCINATE]

>  <RALB [g/dL]>
3

$$$$
>  <compound>
COC1=CC(=O)C[C@@H](C)[C@]12Oc1c(Cl)c(OC)cc(OC)c1C2=O [GRISEOFULVIN]

>  <RALB [g/dL]>
3.4

$$$$
>  <compound>
CCOc1ccc(NC(=O)CC(C)O)cc1 (stereo unspecified) [BUCETIN]

>  <RALB [g/dL]>
2.9

$$$$
>  <compound>
COc1ccc2[nH]c([S+]([O-])Cc3ncc(C)c(OC)c3C)nc2c1 (stereo unspecified) [OMEPRAZOLE]

>  <RALB [g/dL]>
3.8

$$$$

Provide RALB for all items below, preserving their order.
1. NC(N)=Nc1nc(CSCCC(N)=NS(N)(=O)=O)cs1 [FAMOTIDINE]
2. CC(C)OC(=O)C(C)(C)Oc1ccc(C(=O)c2ccc(Cl)cc2)cc1 [FENOFIBRATE]

stdout:
1. 3.4
2. 2.9

* * *

Species: Rattus norvegicus
Assay: Open TG-GATES - Regimen: Single
Assay type: toxicity, organism-based, Sprague-Dawley
Set-up: regimen Single, gender Male, age 6 weeks
Details: in vivo, po, 0 mg/kg, 24 h, tissue Plasma, route gavage, dose level Control
Would you kindly list Ca for each of these compounds?
Answers are plain numbers, in mg/dL.

Provide Ca for all items below, preserving their order.
1. CC1=C(/C=C/C(C)=C/C=C/C(C)=C/CO)C(C)(C)CCC1 [RETINOL]
2. CCOc1ccc(NC(=O)CC(C)O)cc1 (stereo not drawn) [BUCETIN]
3. CCOC(=O)CCC(=O)O[C@H]1[C@H](O[C@@H]2[C@@H](C)[C@H](O[C@H]3C[C@@](C)(OC)[C@@H](O)[C@H](C)O3)[C@@H](C)C(=O)O[C@H](CC)[C@@](C)(O)[C@H](O)[C@@H](C)C(=O)[C@H](C)C[C@@]2(C)O)O[C@H](C)C[C@@H]1N(C)C [ERYTHROMYCIN ETHYLSUCCINATE]
4. NC(N)=Nc1nc(CSCCC(N)=NS(N)(=O)=O)cs1 [FAMOTIDINE]
5. NNC(=O)c1ccncc1 [ISONIAZID]

stdout:
1: 10.7; 2: 11.1; 3: 10.5; 4: 10.7; 5: 10.9

Provide Ca for all items below, preserving their order.
1. COC1=CC(=O)C[C@@H](C)[C@]12Oc1c(Cl)c(OC)cc(OC)c1C2=O [GRISEOFULVIN]
2. COc1ccc2[nH]c([S+]([O-])Cc3ncc(C)c(OC)c3C)nc2c1 (stereo not drawn) [OMEPRAZOLE]
3. C[C@@H]1C[C@H]2[C@@H]3CCC4=CC(=O)C=C[C@]4(C)[C@@]3(F)[C@@H](O)C[C@]2(C)[C@@]1(O)C(=O)CO [DEXAMETHASONE]

stdout:
1: 10.9; 2: 11.1; 3: 10.9

* * *

Species on record: Rattus norvegicus
Assay: Open TG-GATES - Regimen: Single
Type: toxicity, organism-based, Sprague-Dawley
Parameters: regimen Single, gender Male, age 6 weeks
Details: in vivo, po, 100 mg/kg, 3 h, tissue Plasma, route gavage, dose level Low
Would you kindly list TC for each of these compounds?

>  <compound>
COc1ccc2[nH]c([S+]([O-])Cc3ncc(C)c(OC)c3C)nc2c1 (centres undefined) [OMEPRAZOLE]

>  <readout_value>
74.2 mg/dL

$$$$

Provide TC for all items below, preserving their order.
1. CCOC(=O)CCC(=O)O[C@H]1[C@H](O[C@@H]2[C@@H](C)[C@H](O[C@H]3C[C@@](C)(OC)[C@@H](O)[C@H](C)O3)[C@@H](C)C(=O)O[C@H](CC)[C@@](C)(O)[C@H](O)[C@@H](C)C(=O)[C@H](C)C[C@@]2(C)O)O[C@H](C)C[C@@H]1N(C)C [ERYTHROMYCIN ETHYLSUCCINATE]
2. NC(N)=Nc1nc(CSCCC(N)=NS(N)(=O)=O)cs1 [FAMOTIDINE]
3. COC1=CC(=O)C[C@@H](C)[C@]12Oc1c(Cl)c(OC)cc(OC)c1C2=O [GRISEOFULVIN]

stdout:
1: 73 mg/dL; 2: 79 mg/dL; 3: 80.6 mg/dL

* * *

Organism: Rattus norvegicus
Assay: Open TG-GATES - Regimen: Single
Format: toxicity, organism-based, Sprague-Dawley
Design: regimen Single, gender Male, age 6 weeks
Conditions: in vivo, po, 1000 mg/kg, 3 h, tissue Plasma, route gavage, dose level High
Would you kindly list Ca for each of these compounds?
Numbers only, in mg/dL.

>  <compound>
NC(N)=Nc1nc(CSCCC(N)=NS(N)(=O)=O)cs1

>  <readout_type>
Ca

>  <quantity_unit>
mg/dL

>  <readout_value>
10.7

$$$$

Provide Ca for all items below, preserving their order.
1. CCOC(=O)CCC(=O)O[C@H]1[C@H](O[C@@H]2[C@@H](C)[C@H](O[C@H]3C[C@@](C)(OC)[C@@H](O)[C@H](C)O3)[C@@H](C)C(=O)O[C@H](CC)[C@@](C)(O)[C@H](O)[C@@H](C)C(=O)[C@H](C)C[C@@]2(C)O)O[C@H](C)C[C@@H]1N(C)C [ERYTHROMYCIN ETHYLSUCCINATE]
2. COc1ccc2[nH]c([S+]([O-])Cc3ncc(C)c(OC)c3C)nc2c1 (centres undefined)

stdout:
10.4
10.2

stdin: Please report the measured Ca for COC1=CC(=O)C[C@@H](C)[C@]12Oc1c(Cl)c(OC)cc(OC)c1C2=O
stdout: 11

* * *

Species on record: Rattus norvegicus
Assay: Open TG-GATES - Regimen: Single
Format: toxicity, organism-based, Sprague-Dawley
Parameters: regimen Single, gender Male, age 6 weeks
Settings: in vivo, po, 30 mg/kg, 3 h, tissue Plasma, route gavage, dose level Middle
readout_type: gamma-GTP (IU/L)
One number for each entry, in IU/L.

Consider the worked cases shown below.
>  <structure>
CN(C)CCN(Cc1cccs1)c1ccccn1

>  <gamma-GTP (IU/L)>
1

$$$$
>  <structure>
CN(C)CCCN1c2ccccc2CCc2ccccc21

>  <gamma-GTP (IU/L)>
1

$$$$
>  <structure>
CN(C)CCCN1c2ccccc2CCc2ccc(Cl)cc21

>  <gamma-GTP (IU/L)>
1

$$$$

stdin: Please report the measured gamma-GTP for CC1=C(/C=C/C(C)=C/C=C/C(C)=C/CO)C(C)(C)CCC1
stdout: 3.6

* * *

Would you kindly list Mono for each of these compounds?
Organism: Rattus norvegicus
Assay: Open TG-GATES - Regimen: Daily Repeat
Assay type: toxicity, organism-based, Sprague-Dawley
Parameters: regimen Daily Repeat, gender Male, age 6 weeks
Conditions: in vivo, po, 10 mg/kg, […], tissue Blood, route gavage, dose level Low, time 14 day
Give bare numbers, in %.

Consider the worked cases shown below.
>  <compound>
CN(C)CCN(Cc1cccs1)c1ccccn1

>  <Mono [%]>
1.6

$$$$
>  <compound>
CC1=C(/C=C/C(C)=C/C=C/C(C)=C/CO)C(C)(C)CCC1

>  <Mono [%]>
1.8

$$$$
>  <compound>
CN(C)CCCN1c2ccccc2CCc2ccccc21

>  <Mono [%]>
2.2

$$$$

Okay, now this compound:
stdin: Please report the measured Mono for CC(C)OC(=O)C(C)(C)Oc1ccc(C(=O)c2ccc(Cl)cc2)cc1 [FENOFIBRATE]
stdout: 3

* * *

Species: Rattus norvegicus
Experiment: Open TG-GATES - Regimen: Daily Repeat
Type: toxicity, organism-based, Sprague-Dawley
Parameters: regimen Daily Repeat, gender Male, age 6 weeks
Settings: in vivo, po, 100 mg/kg, […], tissue Plasma, route gavage, dose level Low, time 7 day
readout_type: RALB (g/dL)
Answers are plain numbers, in g/dL.

Consider the worked cases shown below.
>  <molecule>
CCOC(=O)CCC(=O)O[C@H]1[C@H](O[C@@H]2[C@@H](C)[C@H](O[C@H]3C[C@@](C)(OC)[C@@H](O)[C@H](C)O3)[C@@H](C)C(=O)O[C@H](CC)[C@@](C)(O)[C@H](O)[C@@H](C)C(=O)[C@H](C)C[C@@]2(C)O)O[C@H](C)C[C@@H]1N(C)C [ERYTHROMYCIN ETHYLSUCCINATE]

>  <RALB, g/dL>
2.9

$$$$
>  <molecule>
COc1ccc2[nH]c([S+]([O-])Cc3ncc(C)c(OC)c3C)nc2c1 (stereo not given) [OMEPRAZOLE]

>  <RALB, g/dL>
3.4

$$$$
>  <molecule>
NC(N)=Nc1nc(CSCCC(N)=NS(N)(=O)=O)cs1 [FAMOTIDINE]

>  <RALB, g/dL>
3.4

$$$$

Provide RALB for all items below, preserving their order.
1. COC1=CC(=O)C[C@@H](C)[C@]12Oc1c(Cl)c(OC)cc(OC)c1C2=O [GRISEOFULVIN]
2. CCOc1ccc(NC(=O)CC(C)O)cc1 (stereo not given) [BUCETIN]

stdout:
[3.4, 2.7]
